# subject of test: HLA-B*18:01
# method notes: IEDB peptide-MHC binding, purified MHC/competitive/fluorescence; filed as Kd, often an IC50 or EC50 that approximates it; bounds were set here for any values at or beyond the usual limits of such assays
# condition info: source organism: Orthohantavirus sinnombreense
parameter: Kd

Query: Name the recorded Kd for YKSRCYVGL .
Reply: ≥ 20 µM

----------
# subject of test: HLA-A*01:01
# method notes: IEDB peptide-MHC binding, purified MHC/direct/fluorescence; filed as Kd, often an IC50 or EC50 that approximates it; bounds were set here for any values at or beyond the usual limits of such assays
# condition info: source organism: Yersinia pestis
parameter: Kd

Query: Tell me reported Kd for DLRPYGLIK , tested with HLA-A*01:01.
Reply: ≥ 20 µM

----------
# subject of test: HLA-A*29:02
# method notes: IEDB peptide-MHC binding, purified MHC/competitive/fluorescence; bounds were set here for any values at or beyond the usual limits of such assays
# condition info: source organism: Pan troglodytes
parameter: pIC50
Lab note — pIC50 values are minus log10 of concentrations in M.

Query: Name the recorded pIC50 for RPPYSSYGY .
Reply: 6.60

----------
# subject of test: HLA-B*07:02
# method notes: IEDB peptide-MHC binding, purified MHC/direct/fluorescence; filed as Kd, often an IC50 or EC50 that approximates it; bounds were set here for any values at or beyond the usual limits of such assays
# condition info: source organism: Homo sapiens
parameter: Kd (nM)
# value in nM; strip the unit string

Query: Name the recorded Kd for RVMAPRALL .
Reply: 232

----------
# subject of test: HLA-B*27:05
# method notes: IEDB peptide-MHC binding, purified MHC/direct/fluorescence; filed as Kd, often an IC50 or EC50 that approximates it; bounds were set here for any values at or beyond the usual limits of such assays
# condition info: source organism: Salmonella enterica subsp. enterica serovar Typhimurium
pKd: −log10 of the molar value.
parameter: pKd

Query: Tell me reported pKd for FMIDWILDA , tested with HLA-B*27:05.
Reply: ≤ 4.70

----------
Provide the recorded Kd for the entries that follow.
# subject of test: HLA-B*57:01
# method notes: IEDB peptide-MHC binding, purified MHC/competitive/radioactivity; filed as Kd, often an IC50 or EC50 that approximates it; bounds were set here for any values at or beyond the usual limits of such assays
# condition info: source organism: Dengue virus 1 Brazil/97-11/1997

Query: Name the recorded Kd for TTLSLDYAW .
Reply: 0.617 nM

Query: Name the recorded Kd for RVWIEENPW .
Reply: 2.7 nM

----------
# subject of test: HLA-A*02:12
# method notes: IEDB peptide-MHC binding, purified MHC/direct/fluorescence; filed as Kd, often an IC50 or EC50 that approximates it; bounds were set here for any values at or beyond the usual limits of such assays
# condition info: source organism: Rickettsia sibirica 246
parameter: Kd

Query: Name the recorded Kd for EFVSANLAM .
Reply: ≥ 20 µM

----------
# subject of test: HLA-A*24:03
# method notes: IEDB peptide-MHC binding, purified MHC/direct/fluorescence; filed as Kd, often an IC50 or EC50 that approximates it; bounds were set here for any values at or beyond the usual limits of such assays
# condition info: source organism: Mammarenavirus juninense
parameter: Kd (nM)
# value in nM; strip the unit string

Query: Name the recorded Kd for SFMQEIPTF .
Reply: 0.3

----------
# subject of test: HLA-B*39:01
# method notes: IEDB peptide-MHC binding, purified MHC/competitive/fluorescence; filed as Kd, often an IC50 or EC50 that approximates it; bounds were set here for any values at or beyond the usual limits of such assays
# condition info: source organism: Human immunodeficiency virus 1
parameter: Kd

Query: Name the recorded Kd for AIIRILQQL .
Reply: ≥ 20 µM

----------
# subject of test: HLA-A*03:01
# method notes: IEDB peptide-MHC binding, purified MHC/competitive/radioactivity; filed as Kd, often an IC50 or EC50 that approximates it; bounds were set here for any values at or beyond the usual limits of such assays
# condition info: source organism: Mammarenavirus brazilense
parameter: pKd
Lab note — pKd values are minus log10 of concentrations in M.

Query: Tell me reported pKd for KCFEKFLEPK , tested with HLA-A*03:01.
Reply: 5.90

----------
# subject of test: HLA-A*26:03
# method notes: IEDB peptide-MHC binding, purified MHC/direct/fluorescence; filed as Kd, often an IC50 or EC50 that approximates it; bounds were set here for any values at or beyond the usual limits of such assays
# condition info: source organism: Variola virus
parameter: Kd

Query: Name the recorded Kd for RHDITGFIL .
Reply: ≥ 20 µM

----------
# subject of test: HLA-A*02:01
# method notes: IEDB peptide-MHC binding, purified MHC/competitive/fluorescence; filed as Kd, often an IC50 or EC50 that approximates it; bounds were set here for any values at or beyond the usual limits of such assays
# condition info: source organism: Escherichia coli F11
pKd: −log10 of the molar value.
parameter: pKd

Query: Name the recorded pKd for GLIPQWVTL .
Reply: ≥ 10.00

----------
# subject of test: HLA-A*01:01
# method notes: IEDB peptide-MHC binding, purified MHC/competitive/fluorescence; bounds were set here for any values at or beyond the usual limits of such assays
# condition info: source organism: Sudan ebolavirus
parameter: IC50
Give the value; after it, write the unit.

Query: Name the recorded IC50 for TSSYYATSY .
Reply: 2010 nM

----------
# subject of test: HLA-B*46:01
# method notes: IEDB peptide-MHC binding, purified MHC/competitive/fluorescence; filed as Kd, often an IC50 or EC50 that approximates it; bounds were set here for any values at or beyond the usual limits of such assays
# condition info: source organism: Listeria monocytogenes serotype 4b str. H7858
pKd: −log10 of the molar value.
parameter: pKd

Query: Name the recorded pKd for ITWPRTRHW .
Reply: ≤ 4.70

----------
# subject of test: HLA-B*18:01
# method notes: IEDB peptide-MHC binding, purified MHC/competitive/fluorescence; filed as Kd, often an IC50 or EC50 that approximates it; bounds were set here for any values at or beyond the usual limits of such assays
# condition info: source organism: Yersinia enterocolitica
pKd: −log10 of the molar value.
parameter: pKd

Query: Name the recorded pKd for RTVSVMFFI .
Reply: ≤ 4.70

----------
# subject of test: HLA-B*07:02
# method notes: IEDB peptide-MHC binding, purified MHC/direct/fluorescence; filed as Kd, often an IC50 or EC50 that approximates it; bounds were set here for any values at or beyond the usual limits of such assays
# condition info: source organism: Mycobacterium tuberculosis
parameter: pKd
Lab note — pKd values are minus log10 of concentrations in M.

Query: Tell me reported pKd for RNRDQSNAL , tested with HLA-B*07:02.
Reply: 6.95

----------
# subject of test: HLA-B*51:01
# method notes: IEDB peptide-MHC binding, purified MHC/competitive/radioactivity; filed as Kd, often an IC50 or EC50 that approximates it; bounds were set here for any values at or beyond the usual limits of such assays
# condition info: source organism: Vaccinia virus WR
parameter: pKd
Lab note — pKd values are minus log10 of concentrations in M.

Query: Name the recorded pKd for RPRVTKQYIV .
Reply: 4.83

Query: Name the recorded pKd for PPLISILMI .
Reply: 7.04

Query: Name the recorded pKd for EPISDYSAEV .
Reply: 5.95

----------
# subject of test: HLA-A*29:02
# method notes: IEDB peptide-MHC binding, purified MHC/direct/fluorescence; filed as Kd, often an IC50 or EC50 that approximates it; bounds were set here for any values at or beyond the usual limits of such assays
# condition info: source organism: Reston ebolavirus
pKd: −log10 of the molar value.
parameter: pKd

Query: Name the recorded pKd for LPRERFRKT .
Reply: ≤ 4.70

----------
Provide the recorded pKd for the entries that follow.
# subject of test: HLA-A*11:01
# method notes: IEDB peptide-MHC binding, purified MHC/competitive/radioactivity; filed as Kd, often an IC50 or EC50 that approximates it; bounds were set here for any values at or beyond the usual limits of such assays
# condition info: source organism: Dengue virus 4 Philippines/H241/1956
Lab note — pKd values are minus log10 of concentrations in M.

Query: Name the recorded pKd for ETNMITLLVK .
Reply: 5.97

Query: Name the recorded pKd for RTEAKSALK .
Reply: 6.75

Query: Name the recorded pKd for TTRLENIMWK .
Reply: 6.57

----------
# subject of test: HLA-A*30:01
# method notes: IEDB peptide-MHC binding, purified MHC/competitive/fluorescence; filed as Kd, often an IC50 or EC50 that approximates it; bounds were set here for any values at or beyond the usual limits of such assays
# condition info: source organism: Coxiella burnetii RSA 493
parameter: Kd (µM)
# value in µM; strip the unit string

Query: Name the recorded Kd for EIYRTLYGL .
Reply: 2.47

----------
# subject of test: HLA-A*03:01
# method notes: IEDB peptide-MHC binding, purified MHC/direct/fluorescence; filed as Kd, often an IC50 or EC50 that approximates it; bounds were set here for any values at or beyond the usual limits of such assays
# condition info: source organism: Rickettsia sibirica 246
parameter: Kd

Query: Name the recorded Kd for EFVSANLAM .
Reply: ≥ 20 µM

All values here come from the Immune Epitope Database (IEDB).
